assay: A CellTox Green Cytotoxicity Assay to monitor cytotoxicity in HEK293 cells - 32 hour (AID 1224881); settings: CellTox Green fluorescence; series mostly up to 76.8 µM; further: on the % scale 0 is the no-effect control and ±100 the full control effect; nearly all actives have a fitted effect of over 40% in size
Records with an inconclusive call do not appear. Activity calls are given as the source filed them. The call rests on the fitted dose curve; in most records, active means well fitted activation curve with a large enough effect in the repeat runs; inconclusive means weak or mixed curves; inactive means flat fitted curve, though single readings scatter.
Your reply should match one of these outcome classes. 1 = active, -1 = inactive

Check the results log: what was the call for "C=Cc1ccccc1C=C" ? -1

What do you get for "Oc1ccccc1O" ? -1

What do you get for "Cc1c(N)cccc1C(F)(F)F" ? -1

---

Target: Cytochrome P450 2D6 (Homo sapiens) (UniProt P10635)
Sequence (P10635 whole entry, looked up): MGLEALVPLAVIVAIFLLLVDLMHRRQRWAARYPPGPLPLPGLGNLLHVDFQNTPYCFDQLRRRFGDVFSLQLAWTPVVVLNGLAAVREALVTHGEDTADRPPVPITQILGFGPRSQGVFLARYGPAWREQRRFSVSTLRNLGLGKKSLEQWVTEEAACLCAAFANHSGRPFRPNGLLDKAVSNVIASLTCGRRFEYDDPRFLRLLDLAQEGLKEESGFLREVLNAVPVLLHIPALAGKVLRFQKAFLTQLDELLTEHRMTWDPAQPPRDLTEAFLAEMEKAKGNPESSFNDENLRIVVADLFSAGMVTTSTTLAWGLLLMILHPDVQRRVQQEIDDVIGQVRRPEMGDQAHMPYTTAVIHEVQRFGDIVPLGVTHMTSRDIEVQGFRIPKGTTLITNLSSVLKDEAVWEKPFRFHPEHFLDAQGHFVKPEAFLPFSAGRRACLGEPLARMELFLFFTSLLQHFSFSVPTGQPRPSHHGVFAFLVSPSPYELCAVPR
Assay: Cytochrome P450 Family 2 Subfamily D Member 6 (CYP2D6) small molecule antagonists: luciferase reporter qHTS assay (AID 1671196); further: nearly all actives have a fitted effect of over 50% in size
Conditions: P450-Glo CYP2D6 enzyme assay, luciferin luminescence, 1 h; series mostly up to 115 µM
Excerpt: U.S. Tox21 Program National Center for Advancing Translational Sciences [NCATS] U.S. Environmental Protection Agency [EPA] National Institutes of Environmental Health Sciences [NIEHS] National Toxicology Program [NTP] U.S. Food and Drug Administration [FDA] […] The luciferin products formed are detected with a luciferin detection reagent, and the amount of light produced is proportional to CYP activity. […]
Results filed as inconclusive are left out. Calls of active or inactive are those of the source. The call rests on the fitted dose curve; in most records, active means well fitted inhibition curve with a large enough effect in the repeat runs; inconclusive means weak or mixed curves; inactive means no such curve, though single readings can be large or run the other way.
Your reply should match one of these outcome classes. YES = active, NO = inactive

Study these solved cases before continuing.
Check the results log: what was the call for C=CCCC(=O)/C=C/C1C(C)=CCCC1(C)C (centres undefined) ? NO

What do you get for "O=C1C(c2[nH]c3ccc(S(=O)(=O)O)cc3c2O)=Nc2ccc(S(=O)(=O)O)cc21" ? YES

What do you get for "O=S(=O)(O)c1ccc(Nc2nc(Nc3ccc(/C=C/c4ccc(Nc5nc(Nc6ccc(S(=O)(=O)O)cc6)nc(N(CCO)CCO)n5)cc4S(=O)(=O)O)c(S(=O)(=O)O)c3)nc(N(CCO)CCO)n2)cc1" ? NO

Next:
Check the results log: what was the call for "CCCCCc1ccc(Cl)cc1" ? NO

What do you get for "CN(C)[C@@H](CCOc1cccc2ccccc12)c1ccccc1" ? YES

What do you get for "Clc1ccnc(Cl)n1" ? NO

What do you get for "C#C[C@]1(O)CC[C@H]2[C@@H]3[C@H](C)CC4=C(CCC(=O)C4)[C@H]3CC[C@@]21C" ? NO

What do you get for CCO[C@@H]1O[C@H](C(COCc2ccccc2)OCc2ccccc2)[C@H](OCc2ccccc2)[C@H]1O (some centres undefined) ? YES

What do you get for "Clc1sc(Cl)c(Cl)c1Cl" ? NO

What do you get for "CCCCCCCC/C=C\CCCCCCCCN" ? YES

What do you get for "OCC(F)(F)F" ? NO

What do you get for "CCN(CC)C(=O)c1cc(S(=O)(=O)Cc2ccccc2)c(N2CCC(c3ccccc3)CC2)cc1N(CC)CCN(C)C" ? YES

---

biological target: Retinoic acid receptor RXR-alpha (Homo sapiens) (UniProt P19793); test: qHTS assay to identify small molecule agonists of the RXR signaling pathway (AID 1159527); conditions: HEK293T RXRa-UAS-bla, beta-lactamase ratio, 16 h; series mostly up to 76.8 µM; further: on the % scale 0 is the no-effect control and ±100 the full control effect; nearly all actives have a fitted effect of over 35% in size
Sequence (P19793 whole entry, looked up): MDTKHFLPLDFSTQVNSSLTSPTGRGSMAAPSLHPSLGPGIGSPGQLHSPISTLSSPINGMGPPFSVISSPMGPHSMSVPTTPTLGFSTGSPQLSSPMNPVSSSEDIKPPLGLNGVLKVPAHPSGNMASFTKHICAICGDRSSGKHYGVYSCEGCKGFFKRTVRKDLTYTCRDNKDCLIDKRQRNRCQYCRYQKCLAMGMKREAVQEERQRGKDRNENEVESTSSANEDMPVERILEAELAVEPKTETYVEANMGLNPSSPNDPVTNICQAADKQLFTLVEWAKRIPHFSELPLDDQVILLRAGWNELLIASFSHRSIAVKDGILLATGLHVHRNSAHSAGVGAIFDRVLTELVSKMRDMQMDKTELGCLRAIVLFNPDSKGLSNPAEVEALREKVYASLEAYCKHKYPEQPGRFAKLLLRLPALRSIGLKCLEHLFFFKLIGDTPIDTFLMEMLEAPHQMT
Results filed as inconclusive are left out. Active and inactive are the calls of the source. The call rests on the fitted dose curve.
measure: activation

Use these answered entries as a reference point.
# get_value(readout= activation, system= Retinoic acid receptor RXR-alpha (Homo sapiens) (UniProt P19793)) for "CCOc1ccc2ccccc2c1C(=O)N[C@@H]1C(=O)N2[C@@H]1SC(C)(C)[C@@H]2C(=O)O" inactive

What do you get for "FC(F)(F)c1cccc(Cl)c1" ? inactive

What do you get for "CCCC(=O)OC(C)(C)Cc1ccccc1" ? inactive

What do you get for "Cc1ccc(C(C)C)cc2c(C)ccc1-2" ? inactive

What do you get for "CCCCCCCCCCCCOC(=O)c1ccc(O)cc1" ? inactive

What do you get for CCCCCCOC(=O)C(C)CC (stereo not drawn) ? inactive

What do you get for "C[C@@H](O)[C@H](N)C(=O)O" ? 0.146% [at 15.8 µM] (inactive)

What do you get for "Cc1ccc(O)c(O)c1" ? inactive

// each compound listed below needs its activation
1. Oc1ccccc1O
2. CCOC(=O)NNc1ccc(N(CC)CC(C)O)nn1 (stereo not drawn)
3. O=C(/C=C/c1ccc(O)c(O)c1)O[C@@H](C(=O)O)[C@@H](OC(=O)/C=C/c1ccc(O)c(O)c1)C(=O)O

1. inactive
2. inactive
3. inactive

// each compound listed below needs its activation
1. S=c1nccc[nH]1
2. Cc1cccc(C)c1NC(=O)c1ccc(N)cc1

["inactive", "inactive"]
